System: KM12 colon
Assay: NCI-60 one-dose screen, 48 h (100 = growth as untreated, 0 = no growth, -100 = all killed)
Details: 10 µM unless noted
Compounds without any hit were thinned out: in the full panel of roughly 83,000, 20% have a hit.
parameter: growth (%)
// note: answer is a bare numeric in %

Fill in: growth of COc1ccc(C2C=C(c3ccc(N)cc3)N=C3SC=CN32)cc1OC (centres undefined) is ___
99.5

Repeat with `C=C1C(=O)O[C@@H]2[C@@H]3O[C@@](C)(CC/C=C(\C)CCC[C@@H]2C)[C@H](O)C[C@@H]13`
75.8

Repeat with `COC(=O)[C@]12CC[C@@H](C)[C@H](C)[C@@H]1C1=CC[C@@H]3[C@@]4(C)C(C=O)=C[C@@](C)(COC(=O)c5ccco5)[C@@H]4[C@H](O)C[C@@]3(C)[C@]1(C)CC2`
-56.8

Repeat with `O=C(c1ccccc1)c1c(/C=C/c2ccccc2)c2ccccc2[nH]c1=O`
96

Repeat with `O=C(Nc1ccncc1)C(=O)c1cn(S(=O)(=O)c2ccccc2F)c2ccccc12`
19.2

Repeat with `CC(=O)Nc1scc[n+]1Cc1ccccc1`
105

Repeat with O=C1Nc2ccc(Cl)cc2C12Nc1cc(Cl)ccc1S2 (centres undefined)
70.7

Repeat with `COc1ccc(C(=O)N2NC(=O)/C(=C/c3ccc(Br)cc3)N=C2c2ccccc2)cc1`
99.6

Repeat with `FC(F)(F)c1ccccc1-c1cn2c(ccc3ccccc32)n1`
87

Provenance of the data: PubChem BioAssay (NCI)
